The following molecules are listed with their measured log10(CC25) values.
- System: Mycobacterium leprae
- Method: Effect on Mycobacterium leprae recombinant DNA gyrase expressed in Escherichia coli assessed as enhancement of supercoiled pBR322 DNA cleavage
Log10 applied to CC25; unit prior to transform: µg/mL.

CC1COc2c(N3CCN(C)CC3)c(F)cc3c(=O)c(C(=O)O)cn1c23 (stereo not drawn)	1.00
NC1CCN(c2c(F)cc3c(=O)c(C(=O)O)cn(C4CC4)c3c2Cl)C1 (stereo not drawn)	-0.22
COc1c(N2CCNC(C)C2)c(F)cc2c(=O)c(C(=O)O)cn(C3CC3)c12 (stereo not drawn)	0.00

Tell me reported log10(CC25) for C[C@@H]1CN(c2c(F)c(N)c3c(=O)c(C(=O)O)cn(C4CC4)c3c2F)C[C@H](C)N1 , tested with Mycobacterium leprae. 0.00

Okay, and C[C@H]1COc2c(N3CCN(C)CC3)c(F)cc3c(=O)c(C(=O)O)cn1c23.C[C@H]1COc2c(N3CCN(C)CC3)c(F)cc3c(=O)c(C(=O)O)cn1c23.O ? 0.48

Source: ChEMBL document CHEMBL1145475
